Target: UniProtKB P03951
Sequence (P03951 19-387 limits assumed): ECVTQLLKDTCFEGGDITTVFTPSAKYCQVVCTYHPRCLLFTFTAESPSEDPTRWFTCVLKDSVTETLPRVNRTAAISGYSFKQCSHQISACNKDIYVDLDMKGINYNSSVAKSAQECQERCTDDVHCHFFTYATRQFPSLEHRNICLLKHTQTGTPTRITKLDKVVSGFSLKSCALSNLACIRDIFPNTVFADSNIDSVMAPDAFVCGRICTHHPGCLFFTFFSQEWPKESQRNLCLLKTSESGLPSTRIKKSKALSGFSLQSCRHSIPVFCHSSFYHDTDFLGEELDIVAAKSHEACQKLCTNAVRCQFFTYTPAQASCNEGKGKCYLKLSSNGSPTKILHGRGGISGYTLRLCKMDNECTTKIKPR
Sequence (P03951 388-625 limits assumed): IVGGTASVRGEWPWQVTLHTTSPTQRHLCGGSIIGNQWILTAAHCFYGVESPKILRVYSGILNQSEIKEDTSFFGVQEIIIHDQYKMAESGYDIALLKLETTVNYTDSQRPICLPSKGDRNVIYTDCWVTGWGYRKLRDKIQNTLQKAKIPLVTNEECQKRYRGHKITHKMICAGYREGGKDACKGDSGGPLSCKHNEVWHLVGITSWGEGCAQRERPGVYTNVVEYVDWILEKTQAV
Assay: Measurement of FXIa Inhibition: The factor XIa inhibition of the substances according to the invention is determined using a biochemical test system which utilizes the reaction of a peptidic factor XIa substrate to determine the enzymatic activity of human factor XIa. Here, factor XIa cleaves from the peptic factor XIa substrate the C-terminal aminomethylcoumarin (AMC), the fluorescence of which is measured. The determinations are carried out in microtitre plates.Test substances are dissolved in dimethyl sulphoxide and serially diluted in dimethyl sulphoxide (3000 μM to 0.0078 μM; resulting final concentrations in the test: 50 μM to 0.00013 μM). 1 μl of the diluted substance solutions is placed into each of the wells of white microtitre plates from Greiner (384 wells). 20 μl of assay buffer (50 mM of Tris/HCl pH 7.4; 100 mM of sodium chloride; 5 mM of calcium chloride; 0.1% of bovine serum albumin) and 20 μl of factor XIa from Kordia (0.45 nM in assay buffer) are then added successively. After 15 mM of incubation, the enzyme reaction is started by addition of 20 μl of the factor XIa substrate Boc-Glu(OBzl)-Ala-Arg-AMC dissolved in assay buffer (10 μM in assay buffer) from Bachem, the mixture is incubated at room temperature (22° C.) for 30 min and fluorescence is then measured (excitation: 360 nm, emission: 460 nm). The measured emissions of the test batches with test substance are compared to those of control batches without test substance (only dimethyl sulphoxide instead of test substance in dimethyl sulphoxide), and IC50 values are calculated from the concentration/activity relationships.
Readout Name: IC50

Request the reported IC50 associated with CNC(=O)c1ccc(NC(=O)C(Cc2cnco2)n2cc(OC)c(-c3cc(Cl)ccc3C#N)cc2=O)cn1 (racemic)
12 nM
